Target: human LPAR1 (Homo sapiens, UniProt Q92633)
Sequence (Q92633 whole entry): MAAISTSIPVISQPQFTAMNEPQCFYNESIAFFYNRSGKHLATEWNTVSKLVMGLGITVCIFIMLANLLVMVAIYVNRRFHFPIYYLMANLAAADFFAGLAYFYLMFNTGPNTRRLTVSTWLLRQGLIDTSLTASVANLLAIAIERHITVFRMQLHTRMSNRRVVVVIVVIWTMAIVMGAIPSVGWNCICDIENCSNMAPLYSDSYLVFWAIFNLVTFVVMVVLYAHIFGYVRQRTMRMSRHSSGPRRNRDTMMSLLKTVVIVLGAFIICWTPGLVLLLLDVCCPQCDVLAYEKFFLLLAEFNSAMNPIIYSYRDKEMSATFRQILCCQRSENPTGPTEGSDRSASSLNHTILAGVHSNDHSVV
Assay: In vitro functional assay of lysophosphatidic acid receptor 1 activity (calcium flux)
Type: cell-based
Conditions: B103 cells stably expressing human LPAR1; calcium flux (Fluo-4 NW) after lysophosphatidic acid (18:1) at EC80; 100 pM to 10 μM; read-out: LPAR1 IC50
pIC50: −log10 of the molar value.
Measured pIC50, listed per entry for reference.

// solved cases for pIC50 follow
COc1ccc(NC(=O)N(c2ccccc2C(C)C)[C@H]2CC[C@H](C(=O)O)CC2)c(OCC(F)F)n1 [Example 289]; > 8.00
Cc1ccc(NC(=O)N(c2ccccc2C(C)C)[C@H]2C[C@H](Cc3nnn[nH]3)C2)c(OC(F)F)n1 [Example 191]; 7.00 to 8.00
Cc1ccc(NC(=O)N(c2ccccc2C(C)C)C2CCOCC2)c(OC(F)F)n1 [Example 18]; 7.00 to 8.00

// below: pIC50 requested for another compound
Sample Cc1ccc(NC(=O)N(c2ccccc2C(C)C)[C@H]2C[C@@H](CO)C2)c(OC(F)F)n1 [Example 193] ; pIC50 observed: 6.00 to 7.00

###

Target: UniProt:Q92633
Assay: In vitro functional assay of lysophosphatidic acid receptor 1 activity (calcium flux)
Type: cell-based
Settings: B103 cells stably expressing human LPAR1; calcium flux (Fluo-4 NW) after lysophosphatidic acid (18:1) at EC80; 100 pM to 10 μM; read-out: LPAR1 IC50
pIC50: −log10 of the molar value.
Property name: pIC50

CC(=O)N(C(C)=O)[C@H]1CC[C@@H](N(C(=O)Nc2ccc(C)nc2OC(F)F)c2ccccc2C(C)C)CC1 [Example 264]; 6.00 to 7.00
COc1ccc(NC(=O)N(c2ccccc2C(C)C)[C@H]2C[C@@](O)(C(F)(F)C(=O)O)C2)c(OC(F)F)n1 [Example 323]; > 8.00
Cc1ccc(NC(=O)N(c2ccccc2C(C)C)[C@H]2CC[C@H](CC(C)(C)O)CC2)c(OC(F)F)n1 [Example 247]; 7.00 to 8.00
COc1ccc(NC(=O)N(c2ccccc2C(C)C)[C@H]2CC[C@H](C(=O)O)CC2)c(OCCF)n1 [Example 315]; 7.00 to 8.00

Sample CC(C)c1ccccc1N(C(=O)Nc1ccc(C2CC2)nc1OC(F)F)[C@H]1CC[C@H](C(=O)O)CC1 [Example 232] ; pIC50 observed: 7.00 to 8.00

Sample Cc1ccc(NC(=O)N(c2ccccc2C(C)C)[C@@H]2CCC[C@H](C(=O)O)C2)c(OC(F)F)n1 [Example 287] ; pIC50 observed: 6.00 to 7.00

Sample [2H]C([2H])([2H])c1ccc(NC(=O)N(c2ccccc2C(C)C)[C@H]2CC[C@H](C(=O)O)CC2)c(OC(F)F)n1 [Example 156] ; pIC50 observed: > 8.00

Sample COc1ccc(NC(=O)N(c2ccccc2C(C)C)[C@H]2C[C@@H](C(=O)O)C2)c(OC(F)F)n1 [Example 152] ; pIC50 observed: 6.00 to 7.00

Sample Cc1ccc(NC(=O)N(c2ccccc2C(C)C)[C@H]2C[C@H](CC#N)C2)c(OC(F)F)n1 [Example 27] ; pIC50 observed: 6.00 to 7.00

###

Target: human LPAR1 (Homo sapiens, UniProt Q92633)
Test: In vitro functional assay of lysophosphatidic acid receptor 1 activity (calcium flux)
Format: cell-based
Details: B103 cells stably expressing human LPAR1; calcium flux (Fluo-4 NW) after lysophosphatidic acid (18:1) at EC80; 100 pM to 10 μM; read-out: LPAR1 IC50
pIC50: −log10 of the molar value.
Measured pIC50, listed per entry for reference.

// solved cases for pIC50 follow
Cc1ccc(NC(=O)N(c2ccccc2C(C)C)C2CC3(C2)CN(C(=O)Cn2nccn2)C3)c(OC(F)F)n1; 6.00 to 7.00
Cc1ccc(NC(=O)N(CC2CC(CC(=O)O)C2)c2ccccc2C(C)C)c(OC(F)F)n1 (stereo not shown); > 8.00
COc1cc(F)c(Cl)cc1NC(=O)N(c1ccccc1C(C)C)[C@H]1CC[C@H](C(=O)O)CC1; 6.00 to 7.00

// below: pIC50 requested for another molecule
Sample `Cc1ccc(NC(=O)N(c2ccccc2C(C)C)[C@H]2CC[C@@H](c3cccnc3)CC2)c(OC(F)F)n1` ; pIC50 observed: < 6.00

###

Measured IC50, listed per entry for reference.
Molecular target: human LPAR1 (Homo sapiens)
Assay: In vitro functional assay of lysophosphatidic acid receptor 1 activity (calcium flux)
Assay type: cell-based
Settings: B103 cells stably expressing human LPAR1; calcium flux (Fluo-4 NW) after lysophosphatidic acid (18:1) at EC80; 100 pM to 10 μM; read-out: LPAR1 IC50

// solved cases for IC50 follow
Cc1ccc(NC(=O)N(c2ccccc2C(C)C)[C@H]2C[C@@H](C#N)C2)c(OC(F)F)n1 [Example 26]; 100 to 1000 nM
Cc1ccc(NC(=O)N(c2ccccc2C(C)C)[C@H]2CC[C@@H](C(F)F)CC2)c(OC(F)F)n1 [Example 245]; > 1000 nM

Sample COC[C@H](C)Oc1nc(C)ccc1NC(=O)N(c1ccccc1C(C)C)[C@H]1CC[C@H](C(=O)O)CC1 [Example 316] ; IC50 observed: 10 to 100 nM

Sample CC(C)Oc1ccc(NC(=O)N(c2ccccc2C(C)C)[C@H]2CC[C@H](C(=O)O)CC2)c(OCC(F)F)n1 [Example 259] ; IC50 observed: 10 to 100 nM

###

Measured IC50, listed per entry for reference.
Target: human LPAR1 (Homo sapiens)
Assay: In vitro functional assay of lysophosphatidic acid receptor 1 activity (calcium flux)
Type: cell-based
Details: B103 cells stably expressing human LPAR1; calcium flux (Fluo-4 NW) after lysophosphatidic acid (18:1) at EC80; 100 pM to 10 μM; read-out: LPAR1 IC50

// solved cases for IC50 follow
COc1cc(C)ccc1NC(=O)N(c1ccccc1C(C)C)[C@H]1CC[C@H](C(=O)O)CC1 [Example 327]; < 10 nM
Cc1ccc(NC(=O)N(c2ccccc2C(C)C)[C@H]2C[C@@H](O)C2)c(OC(F)F)n1 [Example 182]; 100 to 1000 nM
Cc1ccc(NC(=O)N(c2ccccc2C(C)C)C2CC3(CCC(C(=O)O)CC3)C2)c(OC(F)F)n1 (stereo not shown) [Example 249]; 10 to 100 nM

// below: IC50 requested for another compound
Sample Cc1ccc(NC(=O)N(c2ccccc2C(C)C)C2CCS(=O)(=O)CC2)c(OC(F)F)n1 [Example 20] ; IC50 observed: 10 to 100 nM

###

Biological target: human LPAR1 (Homo sapiens, UniProt Q92633)
Assay: In vitro functional assay of lysophosphatidic acid receptor 1 activity (calcium flux)
Assay type: cell-based
Details: B103 cells stably expressing human LPAR1; calcium flux (Fluo-4 NW) after lysophosphatidic acid (18:1) at EC80; 100 pM to 10 μM; read-out: LPAR1 IC50
pIC50: −log10 of the molar value.
Property name: pIC50

// solved cases for pIC50 follow
Cc1ccc(NC(=O)N(CC2CC(C(=O)O)C2)c2ccccc2C(C)C)c(OC(F)F)n1 (stereo not drawn); > 8.00
Cc1ccc(NC(=O)N(c2ccccc2C(C)C)[C@H]2CC[C@@H](C=O)CC2)c(OC(F)F)n1; < 6.00

Sample `COC[C@H](C)Oc1cc(C)ncc1NC(=O)N(c1ccccc1C(C)C)[C@H]1CC[C@H](C(=O)O)CC1` ; pIC50 observed: 6.00 to 7.00

Sample `Cc1ccc(NC(=O)N(c2ccccc2C(C)C)C2CN(C(=O)CC#N)C2)c(OC(F)F)n1` ; pIC50 observed: 7.00 to 8.00

###

Measured IC50, listed per entry for reference.
Target: UniProtKB Q92633
Test: In vitro functional assay of lysophosphatidic acid receptor 1 activity (calcium flux)
Format: cell-based
Settings: B103 cells stably expressing human LPAR1; calcium flux (Fluo-4 NW) after lysophosphatidic acid (18:1) at EC80; 100 pM to 10 μM; read-out: LPAR1 IC50

// solved cases for IC50 follow
Cc1ccc(NC(=O)N(c2ccccc2C(C)C)[C@H]2CC[C@H](C(=O)O)CC2)c(OC(F)F)n1 [Example 155]; 0.01 to 0.1 µM
Cc1ccc(NC(=O)N(c2ccccc2C(C)C)[C@H]2CC[C@H](C(=O)O)CC2)c(OCCF)n1 [Example 338]; 0.01 to 0.1 µM
CC(C)c1ccccc1N(C(=O)Nc1cc(F)c(F)cc1OC(F)F)[C@H]1CC[C@H](C(=O)O)CC1 [Example 298]; < 0.01 µM

Sample COc1ccc(NC(=O)N(c2ccccc2C(C)C)[C@H]2CC[C@H](S(C)(=O)=O)CC2)c(OC(F)F)n1 [Example 258] ; IC50 observed: 0.1 to 1 µM

Sample Cc1ccc(NC(=O)N(c2ccccc2C(C)C)C2CC(O)(C(F)(F)F)C2)c(OC(F)F)n1 (stereo not drawn) [Example 196] ; IC50 observed: > 1 µM
